tested on: MTOR; conditions: concentration: 1 μM,replicates: in singlicate; n = 1;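 note: KINOMEscan kinase panel screen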
Given measured %Inh, output satisfied if it is greater than or equal to 20% and not satisfied if not.

Observe how each entry below is paired with its result.
>>> df
                                   molecule          group
0  CN(c1ccc2c(c1)nc(NCc1ccc(F)cc1)n2C)c1ccnc(Nc2ccc(CS(C)(=O)=O)cc2)n1.Cl  not satisfied
1  Cn1ccc2ncnc(Oc3ccc(NC(=O)Nc4cc(C(C)(C)C)on4)c(Cl)c3)c21      satisfied
2  CS(=O)c1ccc(-c2coc3ccc(-c4n[nH]c(=O)o4)cc23)cc1 (centres unmarked)  not satisfied
3  Cl.Cl.NC[C@H](CC1CCCCC1)NC(=O)c1ccc(-c2ccnc3[nH]ccc23)s1  not satisfied
4  CS(=O)(=O)c1cccc(CNc2nc(Nc3ccc4c(c3)[C@@H]3C[C@@H]4CNC3=O)ncc2C(F)(F)F)c1  not satisfied
5  COc1cc2c(Nc3ccc(NC(=O)c4ccccc4)cc3)ncnc2cc1OCCCN1CCOCC1  not satisfied

Data request: Check this molecule for %Inh at or above 20%: "Cc1ccn2nc(-c3ccc(F)cc3)c(-c3ccncc3)c2c1.Cl"
Data returned: not satisfied

Data request: Check this molecule for %Inh at or above 20%: "Cn1ccc2ncnc(Oc3ccc(NC(=O)Nc4cccc(C(F)(F)F)c4)c(Cl)c3)c21"
Data returned: satisfied

* * *

system: TYK2(JH1domain-catalytic); conditions: concentration: 1 μM,replicates: in singlicate; n = 1
assay metric: %Inh (%)
Numbers only, in %.

Examples with answers:
In [3]: df
Out[3]:
                                   compound  units_symbol  meas_value
0  CC(=O)c1c(-c2ccncc2)[nH]c(-c2ccncc2)c1C [GW493036]             %          42
1  O=C(Nc1n[nH]c2cc(-c3ccco3)ccc12)C1CC1 [SB-737447]             %          21
2  Cl.Nc1n[nH]c2cc(-c3ccccn3)ccc12 [GSK2189892]             %           0
3  Cc1n[nH]c2cc(Nc3ccnc(Nc4cccc(CN5CCOCC5)c4)n3)ccc12 [GW682569]             %        95.9
4  Cc1cccc(-c2nc(Nc3ccncc3)c3sccc3n2)n1 [GW869641]             %          20
5  C[C@@H]1CNc2c(sc3ccc4nc(-c5ccncc5)ccc4c23)C(=O)N1             %          46
6  N#Cc1cccc(C(=O)NC2CCN(c3ccnc(Nc4ccc(F)cc4)n3)C2)c1 (stereo not drawn) [GSK1379708]             %          14
7  CN(c1ccccc1CNc1nc(Nc2ccc3c(c2)CC(=O)N3)ncc1C(F)(F)F)S(C)(=O)=O             %          88

Now look at this one.
Data request: I have this compound here, COC(=O)Nc1nc2cc(Oc3ccc(NC(=O)Nc4cc(C(F)(F)F)ccc4Cl)cc3)ccc2[nH]1.Cl [GW697465] , and I need its recorded %Inh.
Data returned: 14

* * *

test system: CAMK2D; conditions: concentration: 1 μM,replicates: in singlicate; n = 1
assay metric: %Inh (%)
One number for each entry, in %.

Examples with answers:
In [3]: df
Out[3]:
                                   compound  meas_value
0  CCOC(=O)N1CCC(n2cnc(-c3ccc(F)cc3)c2-c2ccnc(N)n2)CC1           0
1  CS(=O)c1ccc(-c2coc3ccc(-c4n[nH]c(=O)o4)cc23)cc1 (stereo not drawn)           6
2   CC(=O)c1c(-c2ccncc2)[nH]c(-c2ccncc2)c1C           0
3  Cc1ccc(CC(=O)N2CCc3cc(-c4cn(C)c5ncnc(N)c45)ccc32)cc1          16
4  CCNCC(Cc1ccccc1)NC(=O)c1cc(Br)c(-c2ccnc3[nH]ccc23)s1.Cl.Cl (stereo not drawn)          23
5  Cc1ccc2c(-c3ccnc(Nc4ccc(C(F)(F)F)cc4)n3)cnn2n1           0

For each entry beneath this line, provide reported %Inh.
1. O=C(Nc1ccccc1)c1cccc(Oc2ccc3nccn3n2)c1
2. C[C@@H](Oc1cc(-n2cnc3ccc(-c4ccncc4)cc32)sc1C(N)=O)c1ccccc1Cl
3. C[C@@H](Oc1cc(-n2cnc3cc(-c4ccncc4)ccc32)sc1C(N)=O)c1ccccc1Cl

Data returned:
1. 14
2. 31
3. 0

* * *

system: SGK; conditions: concentration: 1 μM,replicates: in singlicate; n = 1
assay metric: %Inh (%)
Answers are plain numbers, in %.

Examples with answers:
>>> df
                                   compound  assay_metric  units_symbol  meas_value
0  Cc1nnc(-c2ccc3occ(-c4ccc(S(C)=O)cc4)c3n2)o1 (stereo not drawn)          %Inh             %           0
1  COc1cc2nccc(Nc3ccc(Oc4ccccc4)cc3)c2cc1OC.Cl          %Inh             %           0
2  O=C(Nc1cccc(C(F)(F)F)c1)c1cccc(Oc2ccc3nccn3n2)c1          %Inh             %           9

For each entry beneath this line, provide reported %Inh.
1. Cc1n[nH]c2cc(Nc3ccnc(Nc4cccc(CN5CCOCC5)c4)n3)ccc12
2. CCCC(=O)Nc1n[nH]c2ncccc12
3. O=C(Nc1cccc(Oc2ccc3nccn3n2)c1)Nc1cccc(C(F)(F)F)c1
4. CSc1nccc(-c2c(-c3ccc(F)cc3)ncn2CCCN2CCOCC2)n1.Cl

Data returned:
1. 0
2. 7
3. 0
4. 10

For each entry beneath this line, provide reported %Inh.
1. FC(F)(F)c1cc(Br)cc(Nc2nccc(-c3cnn4ncccc34)n2)c1
2. O=C(NOCC1CC1)c1cc(Br)c(F)c(F)c1Nc1ccc(I)cc1Cl
3. C[C@@H](Oc1cc(-n2cnc3cc(-c4cnn(C)c4)ccc32)sc1C(N)=O)c1ccccc1Cl
4. COC(=O)Nc1nc2cc(Oc3ccc(NC(=O)Nc4cc(C(F)(F)F)ccc4Cl)cc3)ccc2[nH]1.Cl

Data returned:
[2, 0, 0, 2]

For each entry beneath this line, provide reported %Inh.
1. CS(=O)c1ccc(-c2coc3ccc(-c4n[nH]c(=O)o4)cc23)cc1 (stereo not drawn)
2. CCN1CCN(CCCC(=O)Nc2n[nH]c3nc(-c4ccc(O)cc4)c(Br)cc23)CC1
3. Cc1ccn2nc(-c3ccc(F)cc3)c(-c3ccncc3)c2c1.Cl
4. O=C1NCCc2[nH]c(-c3ccncc3)cc21
5. Cc1cccc(-c2nc(Nc3ccncc3)c3sccc3n2)n1
6. CS(=O)(=O)c1cccc(CNc2nc(Nc3ccc4c(c3)[C@@H]3C[C@@H]4CNC3=O)ncc2C(F)(F)F)c1
7. CN(c1ccccc1CNc1nc(Nc2ccc3c(c2)CC(=O)N3)ncc1C(F)(F)F)S(C)(=O)=O

Data returned:
1: 31; 2: 0; 3: 22; 4: 44; 5: 24; 6: 43; 7: 18

For each entry beneath this line, provide reported %Inh.
1. Cn1ccc2ncnc(Oc3ccc(NC(=O)Nc4cnn(C(C)(C)C)c4)c(Cl)c3)c21
2. CN(c1cccc(CNc2nc(Nc3ccc4c(c3)CC(=O)N4)ncc2C(F)(F)F)c1)S(C)(=O)=O
3. Cn1cc(-c2cccc3c(N)c(C(N)=O)nnc23)cn1
4. CS(=O)(=O)Nc1ccc(-c2ccnc3[nH]ccc23)cc1
5. Cl.Cl.NC[C@H](CC1CCCCC1)NC(=O)c1ccc(-c2ccnc3[nH]ccc23)s1
6. C[C@@H](Oc1cc(-n2cnc3cc(-c4ccncc4)ccc32)sc1C(N)=O)c1ccccc1Cl

Data returned:
1: 10; 2: 31; 3: 78; 4: 24; 5: 80; 6: 0

For each entry beneath this line, provide reported %Inh.
1. Nc1nccc(-c2ccc3c(N)n[nH]c3c2)n1
2. Cc1ccc2c(-c3ccnc(Nc4ccc(C(F)(F)F)cc4)n3)cnn2n1
3. COC(=O)c1cccc(NC(=O)NC2CCN(c3ccnc(Nc4cc(OC)c(OC)c(OC)c4)n3)C2)c1 (stereo not drawn)

Data returned:
[0, 9, 0]

For each entry beneath this line, provide reported %Inh.
1. C[C@@H]1CCN(C(=O)N2CCCC2)C[C@@H]1N(C)c1ncnc2[nH]ccc12
2. OCCn1cc(-c2cnc3nnn(Cc4ccc5ncccc5c4)c3n2)cn1
3. O=C(Nc1n[nH]c2cc(-c3ccco3)ccc12)C1CC1
4. CC(C(=O)NC1CCN(c2ccnc(Nc3ccc(F)cc3)n2)C1)c1ccc(Cl)cc1 (stereo not drawn)
5. C[C@@H](Oc1cc(-n2cnc3ccc(-c4ccncc4)cc32)sc1C(N)=O)c1ccccc1Cl
6. Cn1ccc2ncnc(Oc3ccc(NC(=O)Nc4cccc(C(F)(F)F)c4)c(F)c3)c21

Data returned:
1. 0
2. 0
3. 47
4. 0
5. 7
6. 0

For each entry beneath this line, provide reported %Inh.
1. COc1cc2ncn(-c3cc(OCC4CCCCC4)c(C(N)=O)s3)c2cc1OC
2. Cc1cccc2c(-c3ccncc3)c(-c3ccc(F)cc3)nn12.Cl
3. COc1cc(Nc2nccc(N3CCC(NC(=O)c4cccc(C#N)c4)C3)n2)cc(OC)c1OC (stereo not drawn)

Data returned:
0
0
3

Measured values drawn from paper PMC5540273 for this set.
